Data provenance is patent US20250223281A1.

# Assay Target: GPR40 (Homo sapiens, UniProt O14842)
# Construct: expressed in transfected cells; host or cells: HEK293 cells stably expressing GPR40 (Hygromycin selection)
# Sequence (O14842 whole entry): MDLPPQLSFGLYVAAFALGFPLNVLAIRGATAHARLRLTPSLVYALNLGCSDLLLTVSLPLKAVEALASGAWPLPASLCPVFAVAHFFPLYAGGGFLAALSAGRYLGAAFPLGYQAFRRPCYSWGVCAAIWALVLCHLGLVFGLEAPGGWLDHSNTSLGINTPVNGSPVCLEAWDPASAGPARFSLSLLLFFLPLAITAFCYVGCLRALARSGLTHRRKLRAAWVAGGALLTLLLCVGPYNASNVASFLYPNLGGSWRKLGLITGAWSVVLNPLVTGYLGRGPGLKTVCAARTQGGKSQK
# Assay Comment: IP1 accumulation assay in HEK293 cells stably expressing GPR40
# Format: cell-based
# Condition Set: IP1 accumulation, HEK293 cells stably expressing GPR40, 2 hours at 37° C., % effect relative to AMG-1638; table of Biological Example 1
Property Name: EC50 (nM)
Give just the number in nM; leave the unit off.

The measured EC50 associated with C[C@H](C(=O)O)[C@H](c1ccc2c(c1)O[C@@H](C1CCN(Cc3cc(-c4cn(CCCCCCCCCCCCCCCCCC(=O)NCC[N+](C)(C)CCCS(=O)(=O)[O-])nn4)ccc3OC(F)(F)F)CC1)CC2)C1CC1 reads 2.03

EC50 for COc1ccc(C(=O)N(CC(C)(C)CCn2cc(CCCCCCCCCCCC(=O)NCCC[N+](C)(CC(=O)[O-])CC(=O)O)nn2)c2cccc(C)n2)c(N2CCC(COc3cc([C@@H](CC(=O)O)C4CC4)ccn3)CC2)c1 (stereo partly drawn) is 6.36

Input COc1ccc(C(=O)N(CC(C)(C)CCCCCCn2cc(CCCCCCCCCCCC(=O)NCCC[N+](C)(CC(=O)[O-])CC(=O)O)nn2)c2cccc(C)n2)c(N2CCC(COc3cc([C@@H](CC(=O)O)C4CC4)ccn3)CC2)c1 (stereo partly drawn) . Output EC50: 1

Briefly, EC50 measured for COc1ccc(F)c(-n2nnc(COc3cccc([C@@H](CC(=O)O)C4CC4)c3)c2CC(C)(C)Cn2cc(CCCCCCCCCCCCCCCC(=O)NCC[N+](C)(CCC(=O)NCCN)CCC(=O)NCCN)nn2)c1 : 16.1

compound COc1ccc(F)c(-c2ccc(COc3cccc([C@@H](CC(=O)O)C4CC4)c3)cc2CC(C)(C)Cn2cc(CCCCCCCCCCCCCCC(=O)NCC[N+](C)(CCC(=O)NCCN)CCC(=O)NCCN)nn2)c1 , EC50 observed: 36.5

Entry under test: COc1ccc(C(=O)N(CC(C)(C)CCn2cc(CCCCCCCCCCCCCC(=O)NCC[N+](C)(CCC(=O)NCCN)CCC(=O)NCCN)nn2)c2cccc(C)n2)c(N2CCC(COc3cc([C@@H](CC(=O)O)C4CC4)ccn3)CC2)c1 . Its EC50 was 0.29

# compound COc1ccc(C(=O)N(CC(C)(C)CCn2cc(COCCOCCOCCOCCOCC(=O)NCC[N+](C)(CCC(=O)NCCN)CCC(=O)NCCN)nn2)c2cccc(C)n2)c(N2CCC(c3cc4ccc([C@@H](CC(=O)O)C5CC5)cc4o3)CC2)c1 ; its EC50 = 2030

// field: EC50; key: COc1ccc(C(=O)N(CC(C)(C)CCn2cc(CCCCCCCCCC(=O)NCC[N+](C)(CCC(=O)NCCN)CCC(=O)NCCN)nn2)c2cccc(C)n2)c(N2CCC(COc3cc([C@@H](CC(=O)O)C4CC4)ccn3)CC2)c1 ; value = 44.6

Reported EC50 ( C[C@H](C(=O)O)[C@H](c1ccc2c(c1)O[C@@H](C1CCN(Cc3cc(-c4cn(CCCCCCCCCCCC(=O)NCCN(CCC(=O)NCCN)CCC(=O)NCCN)nn4)ccc3OC(F)(F)F)CC1)CC2)C1CC1 ) = 403

response.value for COc1ccc(F)c(-c2ccc(COc3cccc([C@@H](CC(=O)O)C4CC4)c3)cc2CC(C)(C)Cn2cc(CCCCCCCCC(=O)NCC[N+](C)(CCC(=O)NCCN)CCC(=O)NCCN)nn2)c1 (field: EC50) = 5170

The compound listed as COc1ccc(F)c(-c2ccc(COc3cccc([C@@H](CC(=O)O)C4CC4)c3)cc2CC(C)(C)Cc2cn(CCCCCCCCCCCCCCCCCC(=O)NCCN(CCC(=O)NCCN)CCC(=O)NCCN)nn2)c1 has a reported EC50 of 0.96

// sample C[C@H](C(=O)O)[C@H](c1ccc2c(c1)O[C@@H](C1CCN(Cc3cc(-n4cc(CCCCCCCCCC(=O)NCCN(CCC(=O)NCCN)CCC(=O)NCCN)nn4)ccc3OC(F)(F)F)CC1)CC2)C1CC1 , its EC50 was 413

Lookup result for C[C@H](C(=O)O)[C@H](c1ccc2c(c1)O[C@@H](C1CCN(Cc3cc(-c4cn(CCCCCCCCCCCCCCCCCC(=O)NCCN(CCC(=O)NCCN)CCC(=O)NCCN)nn4)ccc3OC(F)(F)F)CC1)CC2)C1CC1 ; measured EC50: 1.21

// COc1ccc(F)c(-c2ccc(COc3cccc([C@@H](CC(=O)O)C4CC4)c3)cc2C(C)(C)c2cn(CCCCCCCCCCCCCC(=O)NCC[N+](C)(CCC(=O)NCCN)CCC(=O)NCCN)nn2)c1 : EC50 value = 640
